# Test system: VCaP cells
# test_name: Cellular growth inhibition assay for VCaP cells
# Format: cell-based
# condition: Homo sapiens, 72 hours, CellTiter-Glo 2.0
# Procedure: VCaP cells were purchased from American Type Cell Culture (ATCC Cat #CRL2876) and then seeded on poly-D-lysine coated, black clear-bottom 384-well plates at 5000/well in 25 μL Dulbecco's Modified Eagle Medium (DMEM) supplemented with 10% w/w Fetal bovine serum (FBS) and 1% w/w Pen-Strep. […] At the end of the treatment duration, cell viability was quantified with CellTiter-Glo 2.0 reagent (Promega Cat #G9243). […] Data was normalized using zero luminescence for baseline. […]
metric: GI50

{"molecule": "CCc1cnn2c(NCc3ccc(N4CCC(N5CCN(C6CN(c7ncc(C(=O)N[C@H]8C(C)(C)[C@H](Oc9ccc(C#N)c(Cl)c9)C8(C)C)cn7)C6)CC5)CC4)nc3)cc(N3CCCC[C@H]3CCO)nc12", "metric": "GI50", "measured_value": "< 100 nM"}
{"molecule": "CCc1cnn2c(NCc3ccc(OCCOC4CCN(C5CN(c6ncc(C(=O)N[C@H]7C(C)(C)[C@H](Oc8ccc(C#N)c(Cl)c8)C7(C)C)cn6)C5)CC4)nc3)cc(N3CCCC[C@H]3CCO)nc12", "metric": "GI50", "measured_value": "< 100 nM"}
{"molecule": "CCc1cnn2c(NCc3ccc(COCCN4CCN(CC5CCN(c6ncc(C(=O)N[C@H]7C(C)(C)[C@H](Oc8ccc(C#N)c(Cl)c8)C7(C)C)cn6)CC5)CC4)nc3)cc(N3CCCC[C@H]3CCO)nc12", "metric": "GI50", "measured_value": "< 100 nM"}
{"molecule": "CCc1cnn2c(NCc3ccc(OCCCCOCCOC4CCN(c5ncc(C(=O)N[C@H]6C(C)(C)[C@H](Oc7ccc(C#N)c(Cl)c7)C6(C)C)cn5)CC4)nc3)cc(N3CCCC[C@H]3CCO)nc12", "metric": "GI50", "measured_value": "< 100 nM"}
{"molecule": "CCc1cnn2c(NCc3ccc(OCCOCCCCOC4CCN(c5ncc(C(=O)N[C@H]6C(C)(C)[C@H](Oc7ccc(C#N)c(Cl)c7)C6(C)C)cn5)CC4)nc3)cc(N3CCCC[C@H]3CCO)nc12", "metric": "GI50", "measured_value": "< 100 nM"}
{"molecule": "CCc1cnn2c(NCc3ccc(N4CC(OCCN5CC6CN(c7ncc(C(=O)N[C@H]8C(C)(C)[C@H](Oc9ccc(C#N)c(Cl)c9)C8(C)C)cn7)CC6C5)C4)nc3)cc(N3CCCC[C@H]3CCO)nc12 (stereo partly drawn)", "metric": "GI50", "measured_value": "100 to 1000 nM"}
{"molecule": "CCc1cnn2c(NCc3ccc(OCCN4CCN(CC5CCN(c6ncc(C(=O)N[C@H]7C(C)(C)[C@H](Oc8ccc(C#N)c(Cl)c8)C7(C)C)cn6)CC5)CC4)nc3)cc(N3CCCC(F)(F)C3)nc12", "metric": "GI50", "measured_value": "> 3500 nM"}
{"molecule": "CCc1cnn2c(NCc3ccc(OCCCN4CCN(CC5CCN(c6ncc(C(=O)N[C@H]7C(C)(C)[C@H](Oc8ccc(C#N)c(Cl)c8)C7(C)C)cn6)CC5)CC4)nc3)cc(N3CCCC(F)(F)C3)nc12", "metric": "GI50", "measured_value": "100 to 1000 nM"}

Read the entry "CCc1cnn2c(NCc3ccc(OCCCN4CCN(CC5CCN(c6ccc(C(=O)N[C@H]7C(C)(C)[C@H](Oc8ccc(C#N)c(Cl)c8)C7(C)C)nc6)CC5)CC4)nc3)cc(N3CCCC[C@@H]3CCO)nc12" and write its reported GI50. 100 to 1000 nM

Read the entry "CCc1cnn2c(NCc3ccc(OCCCN4CCC(C5CN(c6ncc(C(=O)N[C@H]7C(C)(C)[C@H](Oc8ccc(C#N)c(Cl)c8)C7(C)C)cn6)C5)CC4)nc3)cc(N3CCCC[C@H]3CCO)nc12" and write its reported GI50. < 100 nM

Read the entry "CCc1cnn2c(NCc3ccc(OCCOC4CCN(c5ncc(C(=O)N[C@H]6C(C)(C)[C@H](Oc7ccc(C#N)c(Cl)c7)C6(C)C)cn5)CC4)nc3)cc(N3CCCC[C@H]3CCO)nc12" and write its reported GI50. 1000 to 3500 nM

Read the entry "CCc1cnn2c(NCc3ccc(OCCCOCCCCOC4CCN(c5ncc(C(=O)N[C@H]6C(C)(C)[C@H](Oc7ccc(C#N)c(Cl)c7)C6(C)C)cn5)CC4)nc3)cc(N3CCCC[C@H]3CCO)nc12" and write its reported GI50. > 3500 nM
